- EXPERIMENT_NOTES: yeast display, Sf9 membrane polyspecificity reagent, FACS + sequencing; frameworks hold sequencing errors
ASSAY_READOUT: polyreactivity (PSR sort gate)

record_sequence=QVQLQESSGGLVQAGGSLRMSCAASGTIFHIHIMGRYRQAPGKEGEFVAAISYGTSTYYADSVKGRFTISRDNAKNTVYLQMNSQKPEDTAVYYCAVYDYLEVYFWYWGQGTQVTVSS experimental_result="low polyreactivity"
record_sequence=QDQLVESGGGLVQAGVSLLLICAASGSTSSVYAMGWYRQAPGKERELVAAIRWSTGSTYYADSVKGLFTISRDNAKNTVYLHMNCLKPEETALYYCAAEVYTSVHIYSWYYYWGQGTKVTVSS experimental_result="high polyreactivity"
record_sequence=QVQLVESGGGLVQAGGSLRLSCASSGFTFDPYAMGWYRQAPGKERELVAAISWSGGSTYYADSVKGRFTISRDNAKNTVYLQMNSLKPEDTAVYYCAAEWYNSAYYEYDYWGQGTQVTVSS experimental_result="high polyreactivity"
record_sequence=QVQLVESGGGLVQAGGSLRLSCAASGSTFRANAMGWYRQAPGKERELVAAISSGDSTNYADSVKGRFTISRDNAKKSVYLQMNSLKPEDTAVYYCAAVYTYYWWGSYGYWGQGTQVTVSS experimental_result="low polyreactivity"
record_sequence=QVQLVESGGGLVQAGGSLRLSCAASGFTFSPNARGWYRQAPGKERELVAAISKGGSSTYYADSVKGRFTISRDNAKNTVYLQMNSLKPEDTAVYYCARPSTHKGYDYWGQGTQVTVSS experimental_result="high polyreactivity"

###

- EXPERIMENT_NOTES: yeast display, Sf9 membrane polyspecificity reagent, FACS + sequencing; frameworks hold sequencing errors
ASSAY_READOUT: polyreactivity (PSR sort gate)

record_sequence=QVQLVESGGGLVQAGGSLRLSCAASGFTFRYYAMGWYRQAPGKERELVATISRGGSTNYVDSVKGRFTISRDNAKNTVYLQMNRLKPEDPAVYSCNARYKGWWVSTDSSTDDYWGQGTQVTVSS assay_readout="polyreactivity (PSR sort gate)" experimental_result="high polyreactivity"
record_sequence=QVQLVESGGGLVQAGGSLRLSCAAYGRTLYYNTMGWYRQAPGKERELVASIRWDGGRTYYADSVKGRFTISRDNAKNTVYLQLNSLKPEDTAVYYCAKDGGYYYGTYAYDGCFDYWGQGTQVTVSS assay_readout="polyreactivity (PSR sort gate)" experimental_result="low polyreactivity"
record_sequence=QVQLVESGGGLVQAGGSLRLSCAASGRIIYPNTMGWYRQAPGKERELVAAINRLGGSTYYADSVKGRFTISRDYAKNTVYLQMNSLIPEDTAVYYCAAYTTWTRSGYYDFTSYFWGQGTQVTVSS assay_readout="polyreactivity (PSR sort gate)" experimental_result="high polyreactivity"
record_sequence=QVQLQERAGGLVQAGGSLRQSCAASGYRSLAQTIGWYRQAPGKEREFVASIALGSSTYYTDSVKGSFTISRDNAKTTVYLQMNSLKPEATAVYYCNARDDVYLITPYFLVYVNLDYWGQGTQVTVSS assay_readout="polyreactivity (PSR sort gate)" experimental_result="low polyreactivity"
record_sequence=QVQLVESGGGLDQAGGSLRLSCAASGIIFSSYAMGWYRQAPGKERELVAAISYSGGSTYYADSVKGRFTISRDNAKNTVYLQMNSLKPEDTAVYYCAAQGYSPGGYDYWGQGTQVTVSS assay_readout="polyreactivity (PSR sort gate)" experimental_result="low polyreactivity"

The reported numbers originate from the nanobody polyreactivity screen of Harvey et al. (2022).
